Test system: Dirofilaria immitis microfilariae
Experiment: In Vitro Assay 2: Dirofilaria immitis microfilariae (DIROIM L1) motility
Format: cell-based
Settings: 72 h, read-out: EC50 ppm
So basically: is EC50 under 0.4 µg/mL? Then 1. Not under? Then 0.

{"SMILES REPRESENTATION": "O=C(N[C@H]1CCc2ccccc21)c1ccc2nc(-c3cccc(Cl)c3Cl)cnc2c1", "CATEGORY": 1}
{"SMILES REPRESENTATION": "Cn1c(C(=O)N[C@H]2CCc3ccccc32)nc2c(-c3cccc(Cl)c3Cl)ccnc21", "CATEGORY": 1}
{"SMILES REPRESENTATION": "CC(C)n1c(C(=O)N[C@H]2CCOc3ccccc32)cc2c(-c3cc(Cl)cc(Cl)c3Cl)cccc21", "CATEGORY": 1}
{"SMILES REPRESENTATION": "CN(C)c1c(C(=O)N[C@H]2CCOc3ccccc32)sc2c(-c3ccc(F)c(F)c3)cccc12", "CATEGORY": 0}
{"SMILES REPRESENTATION": "O=C(N[C@H]1CCOc2ccccc21)c1sc2c(-c3cccc(Cl)c3Cl)ccc(F)c2c1N1CCOCC1", "CATEGORY": 0}
{"SMILES REPRESENTATION": "CC(C)n1c(C(=O)N[C@H]2CCOc3ccccc32)cc2c(-c3cc(Cl)nc(Cl)c3)cccc21", "CATEGORY": 0}
{"SMILES REPRESENTATION": "CN(C)c1c(C(=O)N[C@H]2CCOc3ccccc32)cnc2c1cnn2-c1cc(Cl)cc(Cl)c1", "CATEGORY": 0}
{"SMILES REPRESENTATION": "CN(C)c1c(C(=O)N[C@H]2CCOc3ccccc32)cnc2c1n(C)c(=O)n2-c1cc(Cl)cc(Cl)c1", "CATEGORY": 1}
{"SMILES REPRESENTATION": "COc1c(C(=O)N[C@H]2CCOc3ccccc32)sc2c(-c3cc(Cl)cc(Cl)c3)nccc12", "CATEGORY": 0}
{"SMILES REPRESENTATION": "Cc1nn(-c2c(F)cccc2F)c2ncc(C(=O)N[C@H]3CCOc4ccccc43)c(N(C)C)c12", "CATEGORY": 0}
{"SMILES REPRESENTATION": "CC(C)c1c(C(=O)N[C@H]2CCOc3ccccc32)sc2c(-c3cc(Cl)cc(Cl)c3)cccc12", "CATEGORY": 1}
{"SMILES REPRESENTATION": "O=C(N[C@H]1CCOc2ccccc21)C1=Cc2cccc(-c3cc(Cl)cc(Cl)c3)c2OC1", "CATEGORY": 0}
{"SMILES REPRESENTATION": "COc1c(C(=O)N[C@H]2CCOc3ccccc32)sc2c(-c3cccc(Cl)c3Cl)nccc12", "CATEGORY": 1}

Cited source for all entries: patent US12435068B2
